System: E-cadherin promoter activity
Assay: EcadPro-RFP reporter 3D high-content imaging in tumor organoids
Format: cell-based
Details: Homo sapiens, SW-620, read-out: EC50 upregulation of E-cadherin promoter activity; SW620 tumor organoids, 72 h
parameterMeasured: pEC50
pEC50 field: float, defined as -log10 of concentration (mol/L).

Solved entries (count: 2):
INPUT: Dear colleague, I am looking for the recorded pEC50 of the following compound: Cc1cc(Nc2ccc(NC(=O)Cc3cccs3)cc2)nc(N2CCCC2)n1
OUTPUT: 4.94

INPUT: Next compound up: Cc1ccc(Nc2nc(N3CCN(CCO)CC3)nc3nccnc23)cc1Cl
OUTPUT: 4.55

// moving on: another record for pEC50
INPUT: Need pEC50, item COc1ccc(-c2nc(S(=O)(=O)c3ccccc3)c(S(C)(=O)=O)o2)cc1
OUTPUT: 4.92
